Origin of the recorded values: ChEMBL document CHEMBL5360618

- TEST SYSTEM: IL17-RE-IL-17C (Homo sapiens, UniProt Q8NFR9+Q9P0M4)
- Sequence (Q9P0M4 whole entry): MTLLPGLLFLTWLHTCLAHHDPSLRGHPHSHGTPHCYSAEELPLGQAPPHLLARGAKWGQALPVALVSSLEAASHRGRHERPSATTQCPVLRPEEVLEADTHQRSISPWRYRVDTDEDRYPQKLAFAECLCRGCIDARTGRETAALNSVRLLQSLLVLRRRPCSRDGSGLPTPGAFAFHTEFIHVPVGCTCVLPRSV
- Sequence (Q8NFR9 whole entry): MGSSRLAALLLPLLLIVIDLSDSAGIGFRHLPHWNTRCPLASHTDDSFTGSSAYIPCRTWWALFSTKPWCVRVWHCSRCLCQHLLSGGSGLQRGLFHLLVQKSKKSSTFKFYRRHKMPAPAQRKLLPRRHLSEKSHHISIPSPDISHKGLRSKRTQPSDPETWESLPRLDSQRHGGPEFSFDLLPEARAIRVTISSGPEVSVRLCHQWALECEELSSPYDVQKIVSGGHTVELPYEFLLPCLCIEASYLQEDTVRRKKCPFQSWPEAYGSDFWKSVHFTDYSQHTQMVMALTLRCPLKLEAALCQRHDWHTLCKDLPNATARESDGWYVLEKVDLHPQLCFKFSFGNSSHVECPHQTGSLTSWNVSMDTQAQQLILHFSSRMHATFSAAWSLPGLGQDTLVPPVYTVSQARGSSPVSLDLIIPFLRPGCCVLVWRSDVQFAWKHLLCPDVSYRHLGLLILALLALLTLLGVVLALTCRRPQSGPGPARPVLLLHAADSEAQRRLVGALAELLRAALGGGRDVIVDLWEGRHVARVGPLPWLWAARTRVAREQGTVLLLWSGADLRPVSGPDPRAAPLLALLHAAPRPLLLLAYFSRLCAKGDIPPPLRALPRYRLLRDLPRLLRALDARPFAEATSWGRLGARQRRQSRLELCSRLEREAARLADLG
- ASSAY INFO: Inhibition of IL-17C/IL-17RE interaction (unknown origin) incubated for 1.5 hrs by ELISA method
pIC50: −log10 of the molar value. Positions of bridges follow the written chain, without caps; N, C: chain ends. Residues, ends and D or L forms follow the SMILES beside them.
Threshold check on pIC50: at or above 8 gives Y, strictly below gives N.

Some solved cases for reference:
COMPOUND: CC(C)C[C@@H]1NC(=O)[C@H](Cc2c[nH]c3ccccc23)NC(=O)[C@H](C)NC(=O)[C@H](CC(=O)O)NC(=O)[C@H](Cc2ccccc2)NC(=O)[C@H](Cc2c[nH]cn2)NC(=O)[C@H](Cc2ccc(O)cc2)NC(=O)CSC[C@@H](C(=O)NCC(N)=O)NC(=O)[C@H](CC(C)C)NC(=O)[C@H](CC(C)C)NC(=O)[C@H]([C@@H](C)O)NC(=O)[C@H](CO)NC1=O ({CH2CO}-YHFDAWLSTLLCG-NH2; thioether N-12)
ANSWER LABEL: N
--
COMPOUND: CC(C)C[C@@H]1NC(=O)[C@H](Cc2c[nH]c3ccccc23)NC(=O)[C@H](Cc2ccccc2)NC(=O)[C@H](CC(N)=O)NC(=O)[C@H](Cc2ccc(O)cc2)NC(=O)[C@H](CO)NC(=O)[C@H](Cc2ccc(O)cc2)NC(=O)[C@H](CCCNC(=N)N)NC(=O)[C@H](CC(C)C)NC(=O)[C@H](CC(=O)O)NC(=O)[C@H](Cc2ccc(O)cc2)NC(=O)CSC[C@@H](C(=O)NCC(N)=O)NC(=O)[C@H](C)NC1=O ({CH2CO}-YDLRYSYNFWLACG-NH2; thioether N-13)
ANSWER LABEL: N
--
COMPOUND: CC[C@H](C)[C@@H]1NC(=O)[C@@H]2CCCN2C(=O)[C@H](CCCNC(=N)N)NC(=O)[C@H](Cc2c[nH]c3ccccc23)NC(=O)[C@H](Cc2ccccc2)NC(=O)[C@H](CC(N)=O)NC(=O)[C@@H]2CCCN2C(=O)[C@H](Cc2ccccc2)NC(=O)[C@H](Cc2c[nH]c3ccccc23)NC(=O)[C@H](Cc2ccc(O)cc2)NC(=O)CSC[C@@H](C(=O)NCC(N)=O)NC(=O)[C@H](CC(N)=O)NC1=O ({CH2CO}-YWFPNFWRPINCG-NH2; thioether N-12)
ANSWER LABEL: N
--
COMPOUND: CC(C)C[C@@H]1NC(=O)[C@H](CCC(=O)O)NC(=O)CNC(=O)[C@H](Cc2ccc(O)cc2)NC(=O)[C@H](CC(C)C)NC(=O)[C@H](C(C)C)NC(=O)[C@H](CCCNC(=N)N)NC(=O)[C@H](Cc2ccc(O)cc2)NC(=O)[C@H](Cc2ccc(O)cc2)NC(=O)[C@H](Cc2c[nH]cn2)NC(=O)[C@H](Cc2cnc[nH]2)NC(=O)[C@H](Cc2ccc(O)cc2)NC(=O)CSC[C@@H](C(=O)NCC(N)=O)NC(=O)CNC1=O ({CH2CO}-YHHYYRVLYGELGCG-NH2; thioether N-14)
ANSWER LABEL: N
--
COMPOUND: CC[C@H](C)[C@@H]1NC(=O)[C@H](CCCNC(=N)N)NC(=O)[C@H](Cc2ccc(O)cc2)NC(=O)[C@H](Cc2ccc(O)cc2)NC(=O)[C@H](Cc2c[nH]cn2)NC(=O)[C@H](Cc2c[nH]cn2)NC(=O)[C@H](Cc2ccc(O)cc2)NC(=O)CSC[C@@H](C(=O)NCC(N)=O)NC(=O)[C@H](CO)NC(=O)[C@H](CC(C)C)NC(=O)[C@H](CCC(=O)O)NC(=O)CNC(=O)[C@H](Cc2ccc(O)cc2)NC(=O)[C@H](CC(C)C)NC1=O (stereo in doubt)
ANSWER LABEL: N

Please examine the following record next.
Tell me whether pIC50 is at least 8 here: `CC[C@H](C)[C@@H]1NC(=O)[C@H](Cc2cnc[nH]2)NC(=O)[C@H](Cc2ccc(O)cc2)NC(=O)CSC[C@@H](C(=O)NCC(N)=O)NC(=O)CNC(=O)[C@H](CC(C)C)NC(=O)[C@H](CO)NC(=O)CNC(=O)[C@H](Cc2ccc(O)cc2)NC(=O)[C@H](CC(C)C)NC(=O)[C@H](CO)NC(=O)[C@H](C)NC(=O)[C@H](Cc2ccc(O)cc2)NC(=O)[C@@H](Cc2ccc(O)cc2)NC1=O`
Y
